Test: Half life in rat microsomes
Format: ADME, Microsome
reported endpoint: half-life

stdin: Give recorded half-life. "O=C(Nc1cccc(-c2ccnc3cc(-c4ccncc4)nn23)c1)c1cccc(C(F)(F)F)c1"
stdout: > 30 min

----------
Biological target: Protein kinase C alpha type (Homo sapiens)
pIC50: −log10 of the molar value.
reported endpoint: pIC50

stdin: Quick one: give measured pIC50 for "O=C(Nc1cccc(-c2ccnc3cc(-c4ccncc4)nn23)c1)c1cccc(C(F)(F)F)c1"
stdout: < 4.30

----------
Assay: Permeability at pH 7.4 by PAMPA
Type: ADME
Conditions: read-out: permeability
reported endpoint: Papp
Give your result as the value with the unit written after it.

stdin: Could you please provide reported Papp for "O=C(Nc1cccc(-c2ccnc3cc(-c4ccncc4)nn23)c1)c1cccc(C(F)(F)F)c1" ? Thanks!
stdout: 251 ×10⁻⁶ cm/s
